// reported IC50 per item
MEASURED ON: HCV RNA-dependent RNA polymerase (NS5B) (Hepatitis C virus genotype 1b (isolate BK) (HCV))
ASSAY OVERVIEW: RNA-Dependent RNA HCV NS5B (polymerase) Assay and IC50 Determination
Type: biochemical
MEASUREMENT PARAMETERS: purified HCV NS5B polymerase, polyA:U16 substrate, 32P-UTP incorporation; read-out: IC50

Consider the reported IC50 for these compounds:
>  <COMPOUND>
CNC(=O)c1c(-c2ccc(F)cc2)oc2cc(N(CCOCCOCCOCc3cccc(C(=O)O)c3)S(C)(=O)=O)c(C3CC3)cc12

>  <IC50>
< 100 nM

$$$$
>  <COMPOUND>
CNC(=O)c1c(-c2ccc(F)cc2)oc2cc(N(CCOCCOCCOCC(C)=O)S(C)(=O)=O)c(C3CC3)cc12

>  <IC50>
> 1000 nM

$$$$
>  <COMPOUND>
CNC(=O)c1c(-c2ccc(F)cc2)oc2cc(N(CCOCCOCCCCc3cccc(C(=O)CC(=O)C(=O)O)c3)S(C)(=O)=O)c(C3CC3)cc12

>  <IC50>
> 1000 nM

$$$$

Record `CNC(=O)c1c(-c2ccc(F)cc2)oc2cc(N(CCOCCOCCOc3ccc(C(=O)O)cc3)S(C)(=O)=O)c(C3CC3)cc12` . Reported IC50: 100 to 1000 nM

Record CNC(=O)c1c(-c2ccc(F)cc2)oc2cc(N(CCOCCOCCOCCOCCOCCOCc3cccc(C(=O)/C=C(\O)C(=O)O)c3)S(C)(=O)=O)c(C3CC3)cc12 [Compound 02-10E] . Reported IC50: > 1000 nM

Record `CNC(=O)c1c(-c2ccc(F)cc2)oc2cc(N(CCOCCCCCOCC(=O)O)S(C)(=O)=O)c(C3CC3)cc12` . Reported IC50: 100 to 1000 nM

* * *

MEASURED ON: HCV RNA-dependent RNA polymerase (NS5B) (Hepatitis C virus genotype 1b (isolate BK) (HCV))
ASSAY OVERVIEW: RNA-Dependent RNA HCV NS5B (polymerase) Assay and IC50 Determination
Format: biochemical
MEASUREMENT PARAMETERS: purified HCV NS5B polymerase, polyA:U16 substrate, 32P-UTP incorporation; read-out: IC50
pIC50: −log10 of the molar value.
// reported pIC50 per item

Consider the reported pIC50 for these compounds:
>  <COMPOUND>
CNC(=O)c1c(-c2ccc(F)cc2)oc2cc(N(CCOCCOCCOCC(=O)OC(C)(C)C)S(C)(=O)=O)c(C3CC3)cc12 [Compound 23-5A]

>  <QUANTITY NAME>
pIC50

>  <RESULT>
< 6.00

$$$$
>  <COMPOUND>
CNC(=O)c1c(-c2ccc(F)cc2)oc2cc(N(CCOCCOCCOCCOCc3cccc(C(=O)O)c3)S(C)(=O)=O)c(C3CC3)cc12 [Compound 30-4]

>  <QUANTITY NAME>
pIC50

>  <RESULT>
< 6.00

$$$$
>  <COMPOUND>
CNC(=O)c1c(-c2ccc(F)cc2)oc2cc(N(CCOCCOCc3ccc(C(C)=O)cc3)S(C)(=O)=O)c(C3CC3)cc12 [Compound 02-8F]

>  <QUANTITY NAME>
pIC50

>  <RESULT>
< 6.00

$$$$
>  <COMPOUND>
CCOC(=O)c1ccc(OCCCCCCN(c2cc3oc(-c4ccc(F)cc4)c(C(=O)NC)c3cc2C2CC2)S(C)(=O)=O)cc1 [Compound 15-7]

>  <QUANTITY NAME>
pIC50

>  <RESULT>
6.00 to 7.00

$$$$
>  <COMPOUND>
CCOC(=O)C(OCCOCCOCCN(c1cc2oc(-c3ccc(F)cc3)c(C(=O)NC)c2cc1C1CC1)S(C)(=O)=O)c1ccccc1 (stereo not shown) [Compound 25-4]

>  <QUANTITY NAME>
pIC50

>  <RESULT>
< 6.00

$$$$

# lookup: CNC(=O)c1c(-c2ccc(F)cc2)oc2cc(N(CCCOCCOCc3cccc(C(=O)/C=C(\O)C(=O)O)c3)S(C)(=O)=O)c(C3CC3)cc12 [Compound 03-8A] on HCV RNA-dependent RNA polymerase (NS5B) (Hepatitis C virus genotype 1b (isolate BK) (HCV)), pIC50 = 6.00 to 7.00

# lookup: CNC(=O)c1c(-c2ccc(F)cc2)oc2cc(N(CCOCCOCc3ccc(C(=O)O)c(N)c3)S(C)(=O)=O)c(C3CC3)cc12 [Compound 29-10] on HCV RNA-dependent RNA polymerase (NS5B) (Hepatitis C virus genotype 1b (isolate BK) (HCV)), pIC50 = 6.00 to 7.00

# lookup: CNC(=O)c1c(-c2ccc(F)cc2)oc2cc(N(CCOCCCc3cccc(C(C)=O)c3)S(C)(=O)=O)c(C3CC3)cc12 [Compound 30-5] on HCV RNA-dependent RNA polymerase (NS5B) (Hepatitis C virus genotype 1b (isolate BK) (HCV)), pIC50 = < 6.00

# lookup: CNC(=O)c1c(-c2ccc(F)cc2)oc2cc(N(CCOCCOCc3ccc(Cl)nc3)S(C)(=O)=O)c(C3CC3)cc12 [Compound 19-8B] on HCV RNA-dependent RNA polymerase (NS5B) (Hepatitis C virus genotype 1b (isolate BK) (HCV)), pIC50 = > 7.00

# lookup: CNC(=O)c1c(-c2ccc(F)cc2)oc2cc(N(CCCCCCCc3ccc(C(=O)O)cc3)S(C)(=O)=O)c(C3CC3)cc12 [Compound 13-8D] on HCV RNA-dependent RNA polymerase (NS5B) (Hepatitis C virus genotype 1b (isolate BK) (HCV)), pIC50 = 6.00 to 7.00

# lookup: CNC(=O)c1c(-c2ccc(F)cc2)oc2cc(N(CCOCCOCCOCc3ccccc3C(=O)OC)S(C)(=O)=O)c(C3CC3)cc12 [Compound 06-6D] on HCV RNA-dependent RNA polymerase (NS5B) (Hepatitis C virus genotype 1b (isolate BK) (HCV)), pIC50 = 6.00 to 7.00

# lookup: CNC(=O)c1c(-c2ccc(F)cc2)oc2cc(N(CCOCCOCc3ccc(C(=O)O)c(C)c3)S(C)(=O)=O)c(C3CC3)cc12 [Compound 18-10A] on HCV RNA-dependent RNA polymerase (NS5B) (Hepatitis C virus genotype 1b (isolate BK) (HCV)), pIC50 = 6.00 to 7.00

# lookup: CNC(=O)c1c(-c2ccc(F)cc2)oc2cc(N(CCOCCOCCOCc3cccc(C(=O)OC)c3)S(C)(=O)=O)c(C3CC3)cc12 [Compound 06-6F] on HCV RNA-dependent RNA polymerase (NS5B) (Hepatitis C virus genotype 1b (isolate BK) (HCV)), pIC50 = < 6.00

* * *

MEASURED ON: HCV RNA-dependent RNA polymerase (NS5B) (Hepatitis C virus genotype 1b (isolate BK) (HCV), UniProt P26663)
Sequence (P26663 2420-3010): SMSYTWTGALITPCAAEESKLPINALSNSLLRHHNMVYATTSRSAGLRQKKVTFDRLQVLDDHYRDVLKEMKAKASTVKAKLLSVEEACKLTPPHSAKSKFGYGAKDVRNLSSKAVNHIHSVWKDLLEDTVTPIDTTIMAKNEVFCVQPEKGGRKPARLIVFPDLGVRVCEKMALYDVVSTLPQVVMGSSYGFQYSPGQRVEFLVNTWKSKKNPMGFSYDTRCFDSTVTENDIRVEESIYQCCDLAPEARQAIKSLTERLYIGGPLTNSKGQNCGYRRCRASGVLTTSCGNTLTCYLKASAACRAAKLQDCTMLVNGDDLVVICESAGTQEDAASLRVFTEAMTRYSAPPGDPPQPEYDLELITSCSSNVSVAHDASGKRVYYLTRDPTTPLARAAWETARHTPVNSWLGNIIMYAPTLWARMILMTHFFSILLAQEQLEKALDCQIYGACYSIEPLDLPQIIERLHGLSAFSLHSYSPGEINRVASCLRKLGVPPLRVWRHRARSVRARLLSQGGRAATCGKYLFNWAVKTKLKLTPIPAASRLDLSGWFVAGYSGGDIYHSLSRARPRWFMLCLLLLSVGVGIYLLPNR
ASSAY OVERVIEW: RNA-Dependent RNA HCV NS5B (polymerase) Assay and IC50 Determination
Assay type: biochemical
MEASUREMENT PARAMETERS: purified HCV NS5B polymerase, polyA:U16 substrate, 32P-UTP incorporation; read-out: IC50
pIC50: −log10 of the molar value.
// reported pIC50 per item

>  <SMILES CODE>
CNC(=O)c1c(-c2ccc(F)cc2)oc2cc(N(CCOCCOCCc3cccc(C(=O)O)c3)S(C)(=O)=O)c(C3CC3)cc12

>  <pIC50>
> 7.00

$$$$

Record `CNC(=O)c1c(-c2ccc(F)cc2)oc2cc(N(CCOCCOCCc3ccc(C(=O)OC)cc3)S(C)(=O)=O)c(C3CC3)cc12` . Reported pIC50: < 6.00

Record `CNC(=O)c1c(-c2ccc(F)cc2)oc2cc(N(CCOCCOCc3ccc(C(=O)OC)c(C)c3)S(C)(=O)=O)c(C3CC3)cc12` . Reported pIC50: < 6.00

* * *

// reported IC50 per item
MEASURED ON: HCV RNA-dependent RNA polymerase (NS5B) (Hepatitis C virus genotype 1b (isolate BK) (HCV), UniProt P26663)
ASSAY OVERVIEW: RNA-Dependent RNA HCV NS5B (polymerase) Assay and IC50 Determination
Type: biochemical
MEASUREMENT PARAMETERS: purified HCV NS5B polymerase, polyA:U16 substrate, 32P-UTP incorporation; read-out: IC50

Consider the reported IC50 for these compounds:
>  <COMPOUND>
CNC(=O)c1c(-c2ccc(F)cc2)oc2cc(N(CCOCCOCc3ccc(C(=O)OC)cc3C)S(C)(=O)=O)c(C3CC3)cc12 [Compound 18-9B]

>  <IC50>
> 1000 nM

$$$$
>  <COMPOUND>
CNC(=O)c1c(-c2ccc(F)cc2)oc2cc(N(CCOCCOCCOC(C)(C)C(=O)NO)S(C)(=O)=O)c(C3CC3)cc12 [Compound 26-8B]

>  <IC50>
> 1000 nM

$$$$
>  <COMPOUND>
CNC(=O)c1c(-c2ccc(F)cc2)oc2cc(N(CCOCCOCc3ccc(C(=O)OCC(N)=O)cc3)S(C)(=O)=O)c(C3CC3)cc12 [Compound 06-8B5]

>  <IC50>
100 to 1000 nM

$$$$
>  <COMPOUND>
CNC(=O)c1c(-c2ccc(F)cc2)oc2cc(N(CCCOCCCc3ccc(C(=O)O)cc3)S(C)(=O)=O)c(C3CC3)cc12 [Compound 13-8B]

>  <IC50>
100 to 1000 nM

$$$$

Record CNC(=O)c1c(-c2ccc(F)cc2)oc2cc(N(CCOCCOCCOC(C(=O)O)c3ccccc3)S(C)(=O)=O)c(C3CC3)cc12 (stereo not drawn) [Compound 25-5] . Reported IC50: 100 to 1000 nM

Record CCOC(=O)/C(O)=C/C(=O)c1ccc(COCCOCCOCCOCCN(c2cc3oc(-c4ccc(F)cc4)c(C(=O)NC)c3cc2C2CC2)S(C)(=O)=O)cc1 [Compound 02-9H] . Reported IC50: > 1000 nM
